- System: Sprague Dawley rats
- ASSAY_REMARKS: Bennett model of mechanical analgesia (sciatic nerve chronic constriction, paw withdrawal threshold);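 also: log paw withdrawal threshold scaled from vehicle group mean (0%) to naive 15 g value (100%)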
- Assay type: in vivo, rat
- TEST_PARAMETERS: 1 mg/kg PO, 1 h
- Text: The Bennett model of mechanical analgesia is used to assess the analgesic effects of compounds as measured by paw withdrawal threshold. […] For all studies, animals were baselined prior to study start to test for allodynia (defined as a paw withdrawal threshold under 5). […] Once it was confirmed animals were ready for study initiation, animals were balanced across groups. […]
MEASURE_NAME: % analgesia (%)
Express the result in % but write the number alone.

Would you kindly share the measured % analgesia for CC1CCC2(CC1)CNC2=O (racemic) [Compound AD, 7-methyl-2-azaspiro[3.5]nonan-1-one] ?
15.4

Any idea what its % analgesia is? The molecule is O=C1NCC12CCC(O)CC2 (stereo not shown) [AL, 7-hydroxy-2-azaspiro[3.5]nonan-1-one]
52.7

Sample O=C1NCC12CCC(OCc1ccccc1)CC2 (single isomer, unassigned) [AI, 7-(benzyloxy)-2-azaspiro[3.5]nonan-1-one] — what was its % analgesia?
40.4

Param item = COc1ccc(CN2CC3(CCC(O)CC3)C2=O)cc1 (stereo not shown) ; retrieve measured % analgesia.
41.5

The origin of these recorded values is patent US10961189B2.
